Value source: PubChem BioAssay (NCI)

- System: SR leukemia
- measurement protocol: NCI tumour cell line growth inhibition, 48 h; in the data active means GI50 below about 0.43 µM; inactive means the rest
Possible outcomes: label 1 = active, label 0 = inactive

* O=C1c2c(c3c4ccccc4[nH]c3c3ccc4ccccc4c23)C(=O)N1CCN1CCNCC1 | label 0
* Nc1nc(OCc2ccccc2)c2[nH]cnc2n1 | label 0
* CN1CCN(C(=O)c2cc(-c3ccc4ncnc(N5CCc6cc(F)c(Cl)cc65)c4c3)cnc2N)CC1 | label 1
* CCOc1ccccc1C(=O)N1CCN(c2cc(Cl)cc(Cl)c2)CC1 | label 1
* COc1cc(N2C(=O)[C@H](O)C2c2ccc(SC)cc2)cc(OC)c1OC (some centres not stated) | label 1
* C=CC(=O)Nc1cccc(Oc2nc(Nc3ccc(N4CCN(C)CC4)cc3)nc3ccsc23)c1 | label 0
* O=C(OCc1ccc2ccccc2n1)c1cn(C2CC2)c2cc(N3CCN(Cc4ccc5ccccc5n4)CC3)c(F)cc2c1=O | label 0
* CNCCCNCCCCNCCCN1C(=O)c2ccc3c4c(ccc(c24)C1=O)C(=O)N(CCCNCc1ccccc1OC)C3=O | label 0
* CC(C)NCCCn1c(Sc2cc3c(cc2I)OCO3)nc2c(N)ncnc21 | label 1
* O=[N+]([O-])c1ccc(C=Cc2ccccc2)cc1.[C-]#[O+].[C-]#[O+].[C-]#[O+].[Cr] | label 0
* COc1cc2c(cc1OCCCn1c(-c3ccccn3)nc3ccccc31)N=C[C@@H]1CCCN1C2=O | label 0
* O=C1OCC2=C1C(c1ccc(Cl)c(Cl)c1)c1cc3c(cc1N2CCO)OCCO3 (configuration not stated) | label 1
